assayed-target: Cytochrome P450 2C19 (Homo sapiens) (UniProt P33261)
Sequence (P33261 whole entry, looked up): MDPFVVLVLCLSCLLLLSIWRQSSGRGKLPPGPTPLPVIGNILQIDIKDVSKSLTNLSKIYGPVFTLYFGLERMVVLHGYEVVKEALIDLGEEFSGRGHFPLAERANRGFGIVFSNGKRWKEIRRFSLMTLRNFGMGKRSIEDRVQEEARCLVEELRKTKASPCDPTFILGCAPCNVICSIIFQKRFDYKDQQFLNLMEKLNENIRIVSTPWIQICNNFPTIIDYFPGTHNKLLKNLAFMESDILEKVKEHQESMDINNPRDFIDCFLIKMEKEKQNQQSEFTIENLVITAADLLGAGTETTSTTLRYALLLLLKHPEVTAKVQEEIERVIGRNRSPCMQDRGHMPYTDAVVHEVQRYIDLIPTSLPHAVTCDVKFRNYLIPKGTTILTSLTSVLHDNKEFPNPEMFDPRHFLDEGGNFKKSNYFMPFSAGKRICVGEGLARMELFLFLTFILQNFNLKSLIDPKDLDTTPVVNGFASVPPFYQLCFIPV
protocol-text: Cytochrome panel assay with activity outcomes
particulars: recombinant CYP, pro-luciferin dealkylation, luminescence, p450-cyp2c19; series mostly up to 57.1 µM
Among all 16,000 compounds or so, about 5,800 (36%) were called active. Roughly 23% stayed inconclusive and do not appear here. The call rests on the fitted dose curve; in most records, active means well fitted curve in the direction sought with a large enough effect; inconclusive means small, poorly fitted or top-dose-only effect, or effect the other way; inactive means no such curve, though single readings can be large or run the other way. The list shows a part of the results.
Response enum: t for active, f for inactive

Some entries whose results are on file:
compound=Clc1cc(I)cc(Cl)c1NC1=NCCN1 group=f
compound=N[C@@]1(C(=O)O)CC[C@H](C(=O)O)C1 group=f
compound=OCc1cnc[nH]1 group=f
compound=CNCCc1ccc(O)c(O)c1 group=f
compound=Cc1cc(C)c(-n2c(O)c(C=NCCN3CCOCC3)c(=O)[nH]c2=O)c(C)c1 group=f

Task: // return assay outcome for O=C(O)[C@H]1CCN1
Result: f

Task: // return assay outcome for CN1[C@@H](CC(=O)c2ccccc2)CCC[C@@H]1C[C@@H](O)c1ccccc1
Result: f

Task: // return assay outcome for O=C(O)CN1CCN(CC(=O)O)CC(=O)[O][Hg][O]C(=O)C1
Result: t

Task: // return assay outcome for Cc1c(C(=O)c2ccc3ccccc3c2)c2cccc3c2n1[C@H](CN1CCOCC1)CO3
Result: f

Task: // return assay outcome for CCn1cc(C(=O)O)c(=O)c2cc3c(cc21)OCO3
Result: f

Task: // return assay outcome for CN1CC[C@@]2(CCCN(C(=O)c3ccco3)C2)C1
Result: f

Task: // return assay outcome for CCCN(CCC)[C@H]1CCc2c(F)ccc(O)c2C1
Result: f

Task: // return assay outcome for C(=NC12CN3CN(CN(C3)C1)C2)c1cccs1
Result: f

Task: // return assay outcome for Cc1cc(C(C)(C)C)cc(C)c1CC1=NCCN1
Result: f
